# Measured target: Histamine H3 receptor (Mus musculus, UniProt P58406)
# Sequence (P58406 whole entry): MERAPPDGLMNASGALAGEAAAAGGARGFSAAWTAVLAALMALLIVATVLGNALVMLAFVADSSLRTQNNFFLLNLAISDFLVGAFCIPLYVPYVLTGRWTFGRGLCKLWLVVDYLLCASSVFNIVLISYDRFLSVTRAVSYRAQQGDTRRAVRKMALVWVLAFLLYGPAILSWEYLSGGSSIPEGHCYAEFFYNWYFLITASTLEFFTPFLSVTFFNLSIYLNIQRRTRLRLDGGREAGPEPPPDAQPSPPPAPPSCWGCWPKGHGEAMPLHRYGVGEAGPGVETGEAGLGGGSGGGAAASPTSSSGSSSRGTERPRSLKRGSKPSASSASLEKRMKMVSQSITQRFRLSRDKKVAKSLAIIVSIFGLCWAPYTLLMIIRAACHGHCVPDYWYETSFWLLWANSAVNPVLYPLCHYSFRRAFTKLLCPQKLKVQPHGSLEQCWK
Quantity: log10 Ki (log10 of the value in nM)
Friendly reminder: values = log10 of Ki, unit nM.

Known log10 Ki results, listed for orientation:
{"columns": ["Smiles text", "log10 Ki"],
 "data": [
  ["Nc1cc(CN2CCC(F)(C(=O)N3CCC(N4Cc5ccccc5C4)CC3)CC2)ccn1", 0.60],
  ["Nc1cc(CN2CCC(F)(C(=O)N3CCC(N4Cc5ccc(F)cc5C4)CC3)CC2)ccn1", 0.85],
  ["Nc1cc(CN2CCC(F)(C(=O)N3CCC(N4Cc5cccnc5C4)CC3)CC2)ccn1", 1.18],
  ["Nc1cc(CN2CCC(F)(C(=O)N3CCC(N4c5ccccc5Sc5ccccc54)CC3)CC2)ccn1", 0.85],
  ["Cc1nnc2n1-c1sccc1C(=O)N(C1CCN(C(=O)C3(F)CCN(Cc4ccnc(N)c4)CC3)CC1)C2", 1.85],
  ["COc1ccc2c(c1)CCCN(C1CCN(C(=O)C3(F)CCN(Cc4ccnc(N)c4)CC3)CC1)C2", 0.48]
]}

Kindly consider the entry below.
Lab entry: Histamine H3 receptor (Mus musculus, UniProt P58406) assay, compound Nc1cc(CN2CCC(F)(C(=O)N3CCC(N4c5ccccc5Sc5ccc(C(F)(F)F)cc54)CC3)CC2)ccn1 , log10 Ki = 1.71
